Provide the reported apparent KD of MS2 coat protein of each item.
- System: MS2 coat protein
- run_description: apparent KD of MS2 coat protein; higher = weaker reporter binding
- condition_summary: Eterna round: R107; input ligand: tryptophan 2.4 mM
# value in nM; strip the unit string

Exercise: What apparent KD of MS2 coat protein appears in the records for this sequence with MS2 coat protein? GAGCUGAUGUAGAGAUUAUAUAAAAGAGAUACCAGUACAGAAAUGUACCCUUGGCAGCUCAACUUUACAUGAGGAUCACCCAUGU [Ex Theophylline A 19]
Key: 13.9

Exercise: What apparent KD of MS2 coat protein appears in the records for this sequence with MS2 coat protein? AAAUAAAUACAUGAGGAUCACCCAUGUGAAGGAGCGGCCGUUAGGCCAGGUAGGUCGCACAUGAAAGGGAAGCGAAAGAAAUAAU [MAT - Exclusion Arginine A - Mod of Eli - D7]
Key: 19.2

Exercise: What apparent KD of MS2 coat protein appears in the records for this sequence with MS2 coat protein? UCGCUCUGGGUGAAAUCCGGAGAUGUGGAAGGAGCGCUCGAAAGAGCAGGUAGGUCGCCAACGGACAUGAGGAUCACCCAUGUAC [Same State - Arginine A (Freestyle 20)]
Key: 38.3

Exercise: What apparent KD of MS2 coat protein appears in the records for this sequence with MS2 coat protein? UCAAAUGCGGCGGCCGCCACUCGCGGAUAACGAUAGCUUAACAUGAGGAUCACCCAUGUGUCAUGGAGGACCGGGCCCAUAACAU [ttmullin]
Key: 23.9

Exercise: What apparent KD of MS2 coat protein appears in the records for this sequence with MS2 coat protein? AAACAUGAGGAUCACCCAUGUUCAAUAGAUACCAGUGAUACGGUGCACCCUUGGCAGCUGUUGCUGAGUGAUGGUUCCCUCGGUA [#24 SameState-TheophyllineA]
Key: 27.1

Exercise: What apparent KD of MS2 coat protein appears in the records for this sequence with MS2 coat protein? AAAUAAAUAACUGAUACCAGUGGACUGACAUGAGGAUCACCCAUGUUGGGUUUUGUUGUCCACCCUUGGCAGCGGGCAUAUAAAA [#25 Exclusion-TheophyllineB]
Key: 26.8

Exercise: What apparent KD of MS2 coat protein appears in the records for this sequence with MS2 coat protein? AGCCCUGUACUAGAUACCAGCUACAUGAGGAUCACCCAUGUACGAUAAGACUGUCCAUGUAGCCCUUGGCAGCUGCUCGCAUGUA [#13 Exclusion-TheophyllineB]
Key: 29.2

Exercise: What apparent KD of MS2 coat protein appears in the records for this sequence with MS2 coat protein? ACAUGAGGAUCACCCAUGUAAUAGCGAGAAGGAGCGCGUAAGGACGCAGGUAGGUCGCUCGUGGUCCGGCCGCAAGGCCGGACCA [#1 Same State - Arginine A Attempt #10 (HarryS)]
Key: 13.2

Exercise: What apparent KD of MS2 coat protein appears in the records for this sequence with MS2 coat protein? AUAAUAAAGUCGGCCGCCACUAUAAACAUGAGGAACAUGAGGAUCACCCAUGUAUGAGGAUCACCUAGGACCGGGACAAAUAUUA [AstrosExyTryB#3]
Key: 54.7

Exercise: What apparent KD of MS2 coat protein appears in the records for this sequence with MS2 coat protein? UAGAUAGAGGGAAGGAGCGCAGUAACAUAACAUGAGGAUCACCCAUGUAAGAAAUUAAUAAUGCAGGUAGGUCGCCCAAGAUGAU [#10 Same State - Arginine B]
Key: 13.9

Exercise: What apparent KD of MS2 coat protein appears in the records for this sequence with MS2 coat protein? AAUUUUAACGGAAGGAGCGUCAAUUAAUACAAACAUGAGGAUCACCCAUGUCAAUACAUGAGACAGGUAGGUCGCCGUUAUUUGA [JR_AAArginiB_Sub024]
Key: 23.3

Exercise: What apparent KD of MS2 coat protein appears in the records for this sequence with MS2 coat protein? GAACAUAAGGAUACUAUAAUAAGUACAGAAGGAGCGAGCGGAAGCUCAGGUAGGUCGCUGGGUAACAUGAGGAUCACCCAUGUUG [SSArg A #14 Road to perfection1]
Key: 15.6

Exercise: What apparent KD of MS2 coat protein appears in the records for this sequence with MS2 coat protein? AUGUCGUUGAAUAUAGCGGCUUGGAGUGAUACCAGUAUGAUCCAAUACCCUUGGCAGCAUUACAUGAGGAUCACCCAUGUUCCAG [SSTheo A #24]
Key: 34

Exercise: What apparent KD of MS2 coat protein appears in the records for this sequence with MS2 coat protein? GCAUGCGAUACCGAUACCAGCUACUCCAUGGCGCUCCACAUGAGGAUCACCCAUGUAAAUAGCCCUUGGCAGCGGUAUUGAGAUG [Anrabegema]
Key: 21

Exercise: What apparent KD of MS2 coat protein appears in the records for this sequence with MS2 coat protein? GGCACGUACGGAAGGAGCGACUGUUCGACGUGGGUACAUGAGGAUCACCCAUGUCUCCGCAGUCAGGUAGGUCGCCGUACGUGCC [EAB NP+V+V2 #21 +-Same Structure]
Key: 38.6

Exercise: What apparent KD of MS2 coat protein appears in the records for this sequence with MS2 coat protein? ACGCUGAUUGAUUACAAUCAGCGAAAAGAUACCAGUGGGUAAUCCCACCCUUGGCAGCUUAAAUCUGAGGAUCACCCAGGUGGUA [TheoAS 19 #MS2Right #BothOrNeither #AlternativeMS2]
Key: 728

Exercise: What apparent KD of MS2 coat protein appears in the records for this sequence with MS2 coat protein? AAACGUUGCUGCGAUACCAGACAUGAGGAUCACCCAUGUACCAAGGUAAAGAAAUAACGUGUCCCUUGGCAGCGCAGCAACGAAA [MAT - Exclusion Theophlline B - Mod of Eli - D12]
Key: 10.6

Exercise: What apparent KD of MS2 coat protein appears in the records for this sequence with MS2 coat protein? CAUAGCAAAAGUGAUACCAGAGUUCGAGGGAACAUGAGGAUCACCCAUGUGCUUGUACAACUCCCUUGGCAGCACAGAGCAAUUA [theeternabot_sameState_MS2_Theo_B_16]
Key: 26.9

Exercise: What apparent KD of MS2 coat protein appears in the records for this sequence with MS2 coat protein? ACGCCCAGGUAGGCUUAAUGGGAUAUGGAAGGAGCGCUGAUGCAAGCAGGUAGGUCGCCAACGGACAUGAGGAUCACCCAUGUAC [Same State - Arginine A (Freestyle 3)]
Key: 19.5

Exercise: What apparent KD of MS2 coat protein appears in the records for this sequence with MS2 coat protein? GGCGCGGUGAUGGUAGCCGGACGCUAGGUACGAGGACCGGUACGGCCGCCACUCGGAGUCCUGGGACAUGAGGAUCACCCAUGUA [Same State Trp A GF18]
Key: 63.4

Exercise: What apparent KD of MS2 coat protein appears in the records for this sequence with MS2 coat protein? GGACUAACCAGAAGGAGCGACACGCAGAAACUGCUAAUUCCUCCGCACGAGGAUCACCCGUGUCAGGUAGGUCGCUGGUUAGUCG [ArgBX 28]
Key: 23.3

Exercise: What apparent KD of MS2 coat protein appears in the records for this sequence with MS2 coat protein? AAUUUGUCGGGUGAUACCAGCCUCGGCGCGUCUCGCGCUGAACAUGAGGAUCACCCAUGUGGCCCUUGGCAGCACAUGACAAAUC [Raracere]
Key: 677

* * *

- Tested on: MS2 coat protein
- run_description: apparent KD of MS2 coat protein; designed switch direction (-1 OFF switch, 1 ON switch): -1; higher = weaker reporter binding
- condition_summary: input ligand: microRNA oligo, concentration not stated
Provide the reported apparent KD of MS2 coat protein of each item.

Exercise: What apparent KD of MS2 coat protein appears in the records for this sequence with MS2 coat protein? CACCGUUACAUAGGAUAUGUUACAUGAGGAUCACCCAUGUAAUAAAUGAGAAUUUCGAAUGUAAUACAGAAGGAUGGAAUCGGC [Ostracism 71 - Jieux - Exclusion NG 2] (Eterna round: R96, puzzle: Exclusion NG 2)
Key: 16.6 nM

Exercise: What apparent KD of MS2 coat protein appears in the records for this sequence with MS2 coat protein? UCACGGGAUUGAGGAUAUAUAUUAAUUUUUACAAUAGAAGGCAAAUUGUUAGAUUAUUCACUAUACAUGAGGAUCACCCAUGUU [JR_ExcBG1_Sub078] (Eterna round: R96, puzzle: Exclusion NG 1)
Key: 17.6 nM

Exercise: What apparent KD of MS2 coat protein appears in the records for this sequence with MS2 coat protein? GAGCCUAAUGUAGGAUAUCGAGGUCGGUGACGUCGAGAAGGACAUGAGGAUCACCCAUGUCGUAGCGGCGGGAACGCUGCUACG [first try -36 kcal] (Eterna round: R96, puzzle: Exclusion NG 1)
Key: 147 nM

Exercise: What apparent KD of MS2 coat protein appears in the records for this sequence with MS2 coat protein? CUAGCGAGUGUAGGAUAUCGGACUGUUUCAGUCUGAGAAGGACAUGAGGAUCACCCAUGUAUUGCUGCGUGAGUAGCACGCUAG [JL ENG1 3.99] (Eterna round: R96, puzzle: Exclusion NG 1)
Key: 15.6 nM
